Listed here are compounds together with their documented TGI.
- Tested on: HCT-116 colon
- experimental.details: NCI tumour cell line growth inhibition, 48 h
metric: TGI

compound=CCOc1ccc(Nc2nc(-c3ccc4c(c3)NC(=O)CO4)cs2)cc1 metric=TGI data_value="> 100 µM"
compound=O=C1C(=O)c2ccccc2C(O)=C1CN(CCCl)CCCl metric=TGI data_value="> 100 µM"
compound="COC(=O)C12C3C4C5C3(C#N)C1C5(C(=O)OC)C42C(=O)N(C(C)C)C(C)C (stereo not drawn)" metric=TGI data_value="> 100 µM"

###

- System: BT-549 breast
- experimental.details: NCI tumour cell line growth inhibition, 48 h
metric: TGI

compound=Cn1c(Nc2ccccc2)c(C=Nc2ccccc2)c(=O)n(C)c1=O target_or_system="BT-549 breast" data_value="> 100 µM"
compound=COc1ccc(CNc2c3ccccc3nc3ccc(OC)cc23)cc1 target_or_system="BT-549 breast" data_value="15.8 µM"
compound=CC1(C)CC(n2cnc(-c3ccc(F)cc3)c2-c2ccnc(N)n2)CC(C)(C)N1 target_or_system="BT-549 breast" data_value="> 25 µM"
compound="CCCCCC(CO)C(O)(C(F)(F)F)C(F)(F)F (stereo not given)" target_or_system="BT-549 breast" data_value="> 10 µM"
compound=C=C(C)CN(CC#N)CC(=C)C target_or_system="BT-549 breast" data_value="> 100 µM"
compound=CN(C(=O)Cc1ccc(Cl)c(Cl)c1)[C@@H]1CCCC[C@H]1[N+]1(C)CC=CC1 target_or_system="BT-549 breast" data_value="> 100 µM"
compound=O=C1c2cc([N+](=O)[O-])ccc2-c2cccc(F)c21 target_or_system="BT-549 breast" data_value="> 100 µM"
compound="C=C1CC(C)(COc2ccc3ccc(=O)oc3c2)OC1=O (stereo not given)" target_or_system="BT-549 breast" data_value="2.65 µM"
compound="COc1cc(C2=C(C#N)C(N)OC3=C2COc2ccccc23)cc(OC)c1OC (stereo not given)" target_or_system="BT-549 breast" data_value="> 100 µM"
compound="CCCCCCCCC/C=C1\\CC(CO)(COC(=O)C2CCCCC2)OC1=O (stereo not given)" target_or_system="BT-549 breast" data_value="36.2 µM"

###

Collected TGI values appear next to each entry.
- Test system: LOX IMVI melanoma
- experimental.details: NCI tumour cell line growth inhibition, 48 h
metric: TGI (µM)

compound="CC(=O)OC1COC(n2c(-c3ccc(Cl)cc3)cc(-c3ccccc3)c(C#N)c2=S)C(OC(C)=O)C1OC(C)=O (centres undefined)" target_or_system="LOX IMVI melanoma" unit_symbol=µM comparison_sign== data_value=15.5
compound="COc1ccc(C(=O)OC2C=COC(C)C2OC(=O)c2ccc(OC)cc2)cc1 (centres undefined)" target_or_system="LOX IMVI melanoma" unit_symbol=µM comparison_sign== data_value=29.8
compound="NC(=O)C(c1ccccc1)N1OC2C(=O)N(c3cccc4ccccc34)C(=O)C2C1c1c2ccccc2c(Cl)c2ccccc12 (centres undefined)" target_or_system="LOX IMVI melanoma" unit_symbol=µM comparison_sign== data_value=13.6
compound=O=C1c2ccccc2-c2ccc(N=Nc3c(O)ccc4ccccc34)cc21 target_or_system="LOX IMVI melanoma" unit_symbol=µM comparison_sign=> data_value=100
compound=O=c1c2cc([N+](=O)[O-])ccc2n2n1Cc1ccccc1C2 target_or_system="LOX IMVI melanoma" unit_symbol=µM comparison_sign=> data_value=100
compound=CCCN1CCN(c2ccc3nc(-c4ccc5nc(-c6cc(OC)ccc6OC)[nH]c5c4)[nH]c3c2)CC1 target_or_system="LOX IMVI melanoma" unit_symbol=µM comparison_sign== data_value=3.26
compound=CCSC1=N/C(=C\c2ccco2)C(Cl)=N1 target_or_system="LOX IMVI melanoma" unit_symbol=µM comparison_sign=> data_value=100
compound="Cc1ccc(Nc2nc(N)nc3c2ncn3C2OC(CO)C(O)C2O)cc1 (centres undefined)" target_or_system="LOX IMVI melanoma" unit_symbol=µM comparison_sign=> data_value=100
compound=CCOc1ccc(Nc2nc(-c3ccc4c(c3)NC(=O)CO4)cs2)cc1 target_or_system="LOX IMVI melanoma" unit_symbol=µM comparison_sign=> data_value=100

###

# key: entry, value: TGI
- Test system: RXF 393 renal
- experimental.details: NCI tumour cell line growth inhibition, 48 h
metric: TGI (µM)

compound=O=P([O-])(O)OP(=O)([O-])O.[NH-][C@@H]1CCCC[C@H]1[NH-].[Pt+4] comparison_sign=> data_value=100
compound="CC1(C)CCC[C@@]2(C)C1CC[C@H]1CC(O)C3(C)CCC12C3 (stereo not given in full)" comparison_sign== data_value=26.1
compound=O=[N+]([O-])c1ccc(Nc2nc3ccccc3s2)cc1 comparison_sign== data_value=28.9
compound="CCOC(=O)c1c(-c2ccc(O)c(OC)c2)c(C#N)c(=S)n(C2OC(COC(C)=O)C(OC(C)=O)C(OC(C)=O)C2OC(C)=O)c1-c1ccccc1 (stereo not given)" comparison_sign=> data_value=100
compound="CC(=O)NC1C(O)C(O)C(CO)OC1n1ncc(=O)[nH]c1=O (stereo not given)" comparison_sign=> data_value=100

###

Some molecules, each annotated with its measured TGI.
- Test system: HOP-92 NSCLC
- experimental.details: NCI tumour cell line growth inhibition, 48 h
metric: TGI

molecule="CC(C)C1CCC/C=C/C=C/C=C/C=C/C(OC2OC(C)C(O)C(N)C2O)CC2OC(O)(CC(O)CC(O)C(O)CCC(=O)O1)CC(O)C2C(=O)O (stereo not given)" metric=TGI data_value="> 52.5 µM"
molecule="CCOC(=O)c1c(-c2ccc(O)c(OC)c2)c(C#N)c(=S)n(C2OC(COC(C)=O)C(OC(C)=O)C(OC(C)=O)C2OC(C)=O)c1-c1ccccc1 (stereo not given)" metric=TGI data_value="> 100 µM"
molecule=Cc1ccc(/C=C/C(=O)c2sc(-c3cccnc3)nc2C)cc1 metric=TGI data_value="> 100 µM"
molecule=Nc1cn(Cc2ccccc2)c2nc(/C=C3/C=CC=CC3=O)c(O)n12 metric=TGI data_value="> 100 µM"
molecule=CN(C(=O)Cc1ccc(Cl)c(Cl)c1)[C@@H]1CCCC[C@H]1[N+]1(C)CC=CC1 metric=TGI data_value="> 100 µM"

###

- Tested on: IGROV1 ovarian
- experimental.details: NCI tumour cell line growth inhibition, 48 h
Quick reference: TGI of the listed items.
metric: TGI

molecule=Cc1occc1C(=S)Nc1ccc(Cl)c(/C=N/OC(C)C)c1 data_value="> 57.2 µM"
molecule=Nc1cn(Cc2ccccc2)c2nc(/C=C3/C=CC=CC3=O)c(O)n12 data_value="> 100 µM"
molecule=O=c1cc(CBr)c2ccc(O)cc2o1 data_value="> 100 µM"
molecule=CCOP(=O)(OCC)c1ccc(=O)[nH]c1-c1cccs1 data_value="> 100 µM"
molecule="CC(=O)OC1COC(n2c(-c3ccc(Cl)cc3)cc(-c3ccccc3)c(C#N)c2=S)C(OC(C)=O)C1OC(C)=O (centres undefined)" data_value="> 31.6 µM"
molecule=COc1cc(Nc2cnc3cc(F)c(F)cc3n2)cc(OC)c1 data_value="> 100 µM"
molecule=COc1cc(C=Nc2ccc(C(C)C)cc2)cc(OC)c1OC data_value="> 100 µM"
molecule=Cn1nc(-c2ccccc2)nc1[N+](=O)[O-] data_value="> 10 µM"
molecule="C=C1CC(C)(COc2ccc3ccc(=O)oc3c2)OC1=O (centres undefined)" data_value="10.8 µM"

###

- System: TK-10 renal
- experimental.details: NCI tumour cell line growth inhibition, 48 h
metric: TGI

compound=c1ccc2c(c1)-c1ccccc1C2N1CC2CCC(CC2)C1 metric=TGI data_value="> 100 µM"
compound=COc1ccc2cc(/C=N\NC(=O)Nc3cccc4ccccc34)ccc2c1 metric=TGI data_value="56.5 µM"
compound="CC1(C)CCC[C@@]2(C)C1CC[C@H]1CC(O)C3(C)CCC12C3 (stereo partly specified)" metric=TGI data_value="28.7 µM"
compound="NC(=O)C(c1ccccc1)N1OC2C(=O)N(c3cccc4ccccc34)C(=O)C2C1c1c2ccccc2c(Cl)c2ccccc12 (stereo unspecified)" metric=TGI data_value="22.8 µM"
compound=Cc1cc(-c2nnc(N)nc2-c2ccc(F)cc2)cc(Cl)n1 metric=TGI data_value="> 100 µM"
compound=COc1ccc2c(CN3CCC[C@H]3C(=O)O)cc3cc4c(cc3c2c1)OCO4 metric=TGI data_value="67.4 µM"
compound=O=c1ccnc2c1ccc1[nH]cccc12 metric=TGI data_value="> 100 µM"
compound=Cc1cccc(C)c1NC(=S)NC=C(C(N)=O)C(N)=O metric=TGI data_value="> 100 µM"
compound=CN(C)C(=O)Nc1cc2c3c(c1)CCCN3CCC2 metric=TGI data_value="> 10 µM"
compound="COc1cc(C2=C(C#N)C(N)OC3=C2COc2ccccc23)cc(OC)c1OC (stereo unspecified)" metric=TGI data_value="30.2 µM"
compound="CC(=O)NC1C(O)C(O)C(CO)OC1n1ncc(=O)[nH]c1=O (stereo unspecified)" metric=TGI data_value="> 100 µM"
compound=Cc1occc1C(=S)Nc1ccc(Cl)c(/C=N/OC(C)C)c1 metric=TGI data_value="55.8 µM"
compound=CC1=C(C(=O)NCCc2ccccc2)CC(C(=O)NCCc2ccccc2)=C(C)N1 metric=TGI data_value="> 100 µM"
compound=CCOP(=O)(OCC)c1ccc(=O)[nH]c1-c1cccs1 metric=TGI data_value="> 100 µM"
compound=CN(C)CC/C(=N\Nc1ccccc1)c1ccccc1 metric=TGI data_value="41.2 µM"
compound=CC(=O)N/C(=C\c1cccc([N+](=O)[O-])c1)c1nc2c3c(ccc2[nH]1)C(=O)c1ccccc1C3=O metric=TGI data_value="> 100 µM"
compound="COC(=O)C12C(=O)O[C@H](C)C1(O)C(C)C(=O)N2C (stereo partly specified)" metric=TGI data_value="> 100 µM"
compound="C=CCN(CC=C)C(=O)c1cc(C)nc2c1c(=O)n(-c1ccccc1)c(=O)n2CC(O)CN1CCN(c2ncccn2)CC1 (stereo unspecified)" metric=TGI data_value="> 100 µM"
compound=CCc1nc(N)nc(C(=O)NCCNC(=O)c2nc(N)nc(CC)c2C)c1C metric=TGI data_value="> 100 µM"
compound=Cc1ccc(-c2nc(N)nc3c2nnn3Cc2cccc(CO[C@H]3CCOC3)n2)o1 metric=TGI data_value="> 100 µM"
compound=C[C@H]1C[C@H](C)c2ccccc2N(C)C1=Nc1ccccc1 metric=TGI data_value="55.6 µM"
